Recorded % Remaining of Initial (n = 1), 30 min by entry
Experiment: in vitro
Conditions: male, Beagle, dog, s9, 0.5 h, 1 μM
propertyLabel: % Remaining of Initial (n = 1), 30 min

• CCCCCCCCCCCCCCCC(=O)NCCOC(=O)CCC(=O)OC[C@H]1O[C@@](CO)(O[C@H]2O[C@H](CO)[C@@H](O)[C@H](O)[C@H]2O)[C@@H](O)[C@@H]1O = <1.0%
• CCCCC/C=C\C/C=C\CCCCCCCC(=O)OCCNC(=O)CCCCCCCCCCCCCCC = 102%
• CCCCCCCCCCCCCCCC(=O)NCCOC(=O)CCC = <1.0%
• CCCCCCCCCCCCCCCC(=O)NCCOC(=O)CCC(=O)OCC(O)CO (stereo not shown) = <1.0%
• CC/C=C\C/C=C\C/C=C\C/C=C\C/C=C\CCCC(=O)OCCNC(=O)CCCCCCCCCCCCCCC = 74%
• CCCCCCCCCCCCCCCC(=O)NCCOC(=O)CCC(=O)OCC(COC(=O)CCCCCCC)OC(=O)CCCCCCC (stereo not shown) [Compound I-3, PEA-Succinate-Glycerol-Di-Caprylic] = 80%
• CCCCCCCCCCCCCCCC(=O)NCCOC(=O)CCC(=O)OCC(COC(=O)CCC)OC(=O)CCC (stereo not shown) = <1.0%
